# studyTarget: T1, Formyl peptide receptor 2 (human, UniProt P25090 1-351)
# T1 chain: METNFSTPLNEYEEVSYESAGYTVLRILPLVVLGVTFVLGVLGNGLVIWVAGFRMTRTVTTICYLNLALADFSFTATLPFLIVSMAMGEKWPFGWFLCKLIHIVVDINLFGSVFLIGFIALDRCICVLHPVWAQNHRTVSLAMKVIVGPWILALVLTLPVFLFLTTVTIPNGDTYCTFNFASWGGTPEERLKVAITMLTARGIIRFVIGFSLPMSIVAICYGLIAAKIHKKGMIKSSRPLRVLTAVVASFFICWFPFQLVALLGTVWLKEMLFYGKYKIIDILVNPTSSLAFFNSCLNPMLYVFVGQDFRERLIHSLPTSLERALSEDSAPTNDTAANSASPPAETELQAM
pKd: −log10 of the molar value. Ends that are not written are not given here.
readoutType: pKd

Lookup result for MYVKWPWYVWLL (also: fluorescently labeled) [fluorescently labeled N-terminally truncated HCoV-HKU-1 MPR peptide CV2∗] ; measured pKd: < 6.00
